Origin of the recorded values: ChEMBL document CHEMBL1275455

- System: Pseudomonas aeruginosa
- test-description: microbe, parasite or virus in culture
- particulars: 2126
- Description: Antibacterial activity against Pseudomonas aeruginosa 2126 by twofold serial dilution method
Can you tell me MIC for the items I'm about to list?
Answers are plain numbers, in µg/mL.

compound	uom	meas-value
O=C(N[C@H](CO)[C@H](O)c1ccc([N+](=O)[O-])cc1)C(Cl)Cl	µg/mL	128
C[C@@H](O)[C@H]1C(=O)N2C(C(=O)O)=C(SCCNC=N)C[C@H]12 [IMIPENEM ANHYDROUS]	µg/mL	0.5
C[C@H]1[C@H](NC(=O)/C(=N\OC(C)(C)C(=O)O)c2csc(N)n2)C(=O)N1S(=O)(=O)O	µg/mL	1

Give MIC for all compounds that follow.
1. CO/N=C(\C(=O)N[C@@H]1C(=O)N2C(C(=O)[O-])=C(C[N+]3(C)CCCC3)CS[C@H]12)c1csc(N)n1
2. NC[C@H]1O[C@H](O[C@H]2[C@H](O)[C@@H](O[C@H]3O[C@H](CO)[C@@H](O)[C@H](N)[C@H]3O)[C@H](N)C[C@@H]2N)[C@H](N)C[C@@H]1O

Solution:
1. 8
2. 0.25

Give MIC for all compounds that follow.
1. NCC[C@H](O)C(=O)N[C@@H]1C[C@H](N)[C@@H](O[C@H]2O[C@H](CN)[C@@H](O)[C@H](O)[C@H]2O)[C@H](O)[C@H]1O[C@H]1O[C@H](CO)[C@@H](O)[C@H](N)[C@H]1O
2. CC1(C)S[C@@H]2[C@H](NC(=O)[C@H](C(=O)O)c3ccsc3)C(=O)N2[C@H]1C(=O)O

Solution:
1: 1; 2: 4

====

Can you tell me MIC for the items I'm about to list?
- Tested on: Pseudomonas aeruginosa
- test-description: Antibacterial activity against Pseudomonas aeruginosa FK06 by twofold serial dilution method
- Assay type: functional
Numbers only, in µg/mL.

Consider the reported MIC for these compounds:
compound	MIC (µg/mL)
C[C@@H](O)[C@H]1C(=O)N2C(C(=O)O)=C(SCCNC=N)C[C@H]12 [IMIPENEM ANHYDROUS]	0.5
O=C(N[C@H](CO)[C@H](O)c1ccc([N+](=O)[O-])cc1)C(Cl)Cl [CHLORAMPHENICOL]	128
CO/N=C(\C(=O)N[C@@H]1C(=O)N2C(C(=O)[O-])=C(C[N+]3(C)CCCC3)CS[C@H]12)c1csc(N)n1	8

Exercise: I would be grateful if you could share the reported MIC for CC1(C)S[C@@H]2[C@H](NC(=O)[C@H](C(=O)O)c3ccsc3)C(=O)N2[C@H]1C(=O)O [TICARCILLIN] .
Solution: 4

====

- Tested on: Pseudomonas aeruginosa
- test-description: Antibacterial activity against Pseudomonas aeruginosa EryR by twofold serial dilution method
- Assay type: functional
Can you tell me MIC for the items I'm about to list?
Answers are plain numbers, in µg/mL.

Consider the reported MIC for these compounds:
compound	MIC [µg/mL]
C[C@H]1[C@H](NC(=O)/C(=N\OC(C)(C)C(=O)O)c2csc(N)n2)C(=O)N1S(=O)(=O)O	1
NC[C@H]1O[C@H](O[C@H]2[C@H](O)[C@@H](O[C@H]3O[C@H](CO)[C@@H](O)[C@H](N)[C@H]3O)[C@H](N)C[C@@H]2N)[C@H](N)C[C@@H]1O	0.25
O=C(N[C@H](CO)[C@H](O)c1ccc([N+](=O)[O-])cc1)C(Cl)Cl	128
NCC[C@H](O)C(=O)N[C@@H]1C[C@H](N)[C@@H](O[C@H]2O[C@H](CN)[C@@H](O)[C@H](O)[C@H]2O)[C@H](O)[C@H]1O[C@H]1O[C@H](CO)[C@@H](O)[C@H](N)[C@H]1O	2
CO/N=C(\C(=O)N[C@@H]1C(=O)N2C(C(=O)[O-])=C(C[N+]3(C)CCCC3)CS[C@H]12)c1csc(N)n1	8

Give MIC for all compounds that follow.
1. C[C@@H](O)[C@H]1C(=O)N2C(C(=O)O)=C(SCCNC=N)C[C@H]12 [IMIPENEM ANHYDROUS]
2. CC1(C)S[C@@H]2[C@H](NC(=O)[C@H](C(=O)O)c3ccsc3)C(=O)N2[C@H]1C(=O)O

Solution:
1. 0.5
2. 2
